Value source: PubChem BioAssay (NCATS)

Experiment description: Cell Viability - Jurkat (AID 426);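 note: potency is the fitted concentration of half-maximal effect; cells exposed to compound for 40 hours at 37 °C before ATP read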
Reported conditions: qHTS
Records with an inconclusive call do not appear. Active and inactive are the calls of the source.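 Rule for the calls: active = dose-dependent loss of cell ATP signal giving a full or clear fitted curve, ranked by lower potency value; inconclusive = weak partial curve or response only at the top dose; inactive = no loss of viability signal.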 Peptide text beside a SMILES is read from it.
Below, each entry is listed alongside its reported Potency.

Look over these answered cases.
{"Molecule": "CCCCC(CC)COC(=O)C(C#N)=C(c1ccccc1)c1ccccc1 (stereo not drawn)", "Potency": "> 92 µM (inactive)"}
{"Molecule": "Cc1ccc(C)c(OCCCC(C)(C)C(=O)O)c1", "Potency": "> 92 µM (inactive)"}
{"Molecule": "CN(C)c1ccc2nc3ccc(=[N+](C)C)cc-3sc2c1", "Potency": "14.2 µM (active)"}
{"Molecule": "CC(=O)Nc1ccc(O)cc1", "Potency": "> 92 µM (inactive)"}
{"Molecule": "NS(=O)(=O)c1cc(C(=O)O)c(NCc2ccco2)cc1Cl", "Potency": "> 92 µM (inactive)"}

Dear colleague, I am looking for the recorded Potency of the following molecule: CCc1nc(N)nc(N)c1-c1ccc(Cl)cc1 3.02 µM (active)

# query: Potency of entry Nc1ccc(S(N)(=O)=O)cc1 > 92 µM (inactive)

Which measured Potency value corresponds to COC(=O)[C@H](Cc1ccccc1)NC(=O)[C@@H](N)CC(=O)O (H-Asp-Phe-OMe) ? > 92 µM (inactive)
